system: B16F10 cells; test: MTT assay, B16F10 cells grown in conditioned medium from 3T3-L1 cells; conditions: Mus musculus, B16-F10, CM from differentiated adipocytes (ID), 10 days, DTIC 48 h, MTT
RECORDED ENDPOINT: pIC50
Numbers only, as −log10 of the molar value.

Exercise: pIC50 for CN(C)/N=N/c1[nH]cnc1C(N)=O [DTIC, Dacarbazine] ?
Solution: 2.49
